Recorded values, source PubChem BioAssay (NCI).

Tested on: SN12C renal
method.notes: NCI tumour cell line growth inhibition, 48 h
Where a SMILES comes first, the peptide text is derived from it. [ ]: non-standard residue; d: D form. The star is where a group is joined. dTle = CC(C)(C)[C@@H](N)C(=O)O; 4Abz = Nc1ccc(C(=O)O)cc1; NHOH = ON*
measurement.name: TGI

Known TGI results, listed for orientation:
molecule	TGI
C/C=C1\CN2CCc3c([nH]c4ccccc34)C2C=C1CCO (stereo not given)	> 340 µM
CCN(CC)C(=S)SC(C(=O)Nc1nnc(-c2ccccc2)o1)c1ccccc1 (stereo not given)	32.3 µM
C#Cc1cc(Br)c(OC(=O)C(C)(C)C)c(-c2cc(C#C)cc(Br)c2OC(=O)C(C)(C)C)c1	> 100 µM
COc1ccc(/C(=C/n2ccnc2)C(O)c2ccc(OC)c(OC)c2)cc1OC (stereo not given)	> 100 µM
C[C@@H](NC(=O)[C@H](NC(=O)[C@@H]1CCCN1C(=O)CNC(=O)c1ccc(N)cc1)C(C)(C)C)C(=O)NO (H-[4Abz]GP[dTle][dA]-{NHOH})	> 100 µM
Cc1cc2c(C(N)=O)c(N)n(-c3c(C)ccc(O)c3C)c2nc1C	34.5 µM
ONC1=Nc2ccccc2C(=S)N2CSCC12 (stereo not given)	> 100 µM
CC(C)(C)OC(=O)NCCNCCNc1ccccc1	> 100 µM

Entry CCOC(OCC)N1C(=O)C2(C(OCC)OCC)CC3C(OC(=O)N3N)c3cccc1c32 (stereo not given) has what TGI?
> 100 µM

Next entry: `CO/N=C(\COc1ccc2oc(-c3ccccc3)cc(=O)c2c1)c1ccc(OC)cc1`
44.7 µM

----------
Tested on: HS 578T breast
method.notes: NCI tumour cell line growth inhibition, 48 h
Quick reference: TGI of the listed items.

Known TGI results, listed for orientation:
molecule	measurement.target	TGI
CCC(=O)Nc1ccc(C)c(-c2ccc(C(=O)NCC3CC3)cc2)c1	HS 578T breast	> 25 µM
Cc1ccnc2[nH]c(-c3ccc(F)cc3)cc(=O)c12	HS 578T breast	> 100 µM
COC(=O)[C@H]1COC(=O)N1	HS 578T breast	> 100 µM

Entry COC(=O)C1Cc2ccc3c(c2C1=O)CCCC3 (stereo not drawn) has what TGI?
> 100 µM

Next entry: `O=C1/C(=C/c2ccc(Oc3ccccc3)cc2)N=C(c2ccccc2)N1c1ccc(S(=O)(=O)Nc2nccs2)cc1`
> 100 µM

Next entry: `NS(=O)(=O)NCCNc1nonc1C(=Nc1ccc(F)c(Br)c1)NO`
> 100 µM

Next entry: O=C(/C=C/C12c3ccccc3C(c3ccccc31)C1C(=O)NC(=O)C12)c1ccc(F)cc1 (stereo not drawn)
7.84 µM

Next entry: CSC(=S)OC1CC(n2cnc3c(NC(=O)c4ccccc4)ncnc32)OC1CO[Si](C)(C)C(C)(C)C (stereo not drawn)
> 56.2 µM

----------
Tested on: RXF 393 renal
method.notes: NCI tumour cell line growth inhibition, 48 h
Quick reference: TGI of the listed items.
Quick note: give the figure in µM, leave out the unit.

molecule	measurement.target	measurement.name	unit.annotation	recorded.number
O=C1/C(=C/c2ccc(Cl)cc2)CCC/C1=C\c1ccc(Cl)cc1	RXF 393 renal	TGI	µM	3.66
[N-]=[N+]=NCCCn1c2c(c3ccc([N+](=O)[O-])cc3c1=O)C(=O)c1cc(F)ccc1-2	RXF 393 renal	TGI	µM	54.6
CCCCCCCCCNC(=O)/C=C/c1ccc(O)c(O)c1	RXF 393 renal	TGI	µM	50.9
Nc1ccc(-c2cccs2)cc1NC(=O)c1ccc(CCCC(=O)Nc2ccc(C3CC3N)cc2)cc1 (stereo unspecified)	RXF 393 renal	TGI	µM	30
O=C1C=CC(=O)N1c1cccc(N2C(=O)C=CC2=O)c1	RXF 393 renal	TGI	µM	3.1

Entry N#CC1(C#N)C2C=CC(c3coc4cccc2c34)C1(C#N)C#N (stereo unspecified) has what TGI?
9.66

Next entry: `Cc1cn2c(/C=N/N=C(N)N)c(-c3ccccn3)nc2s1`
18.1

Next entry: `Oc1c(Cl)cc(Cl)cc1C(c1cc(Cl)cc(Cl)c1O)C(Cl)(Cl)Cl`
6.66

Next entry: `O=S(=O)(SC1=NCCN1)c1cccc2ccccc12`
71.8

Next entry: `C[C@]12CC[C@@H]3c4ccc(O)cc4CC[C@H]3[C@@H]1CC[C@@H]2OC(=O)CCc1ccccc1`
33.6

Next entry: `CN(C)c1ccc(/C=C2\N=C(N/N=C/c3ccccc3O)NC2=O)cc1`
55.9

Next entry: `COc1ccc2c(c1)C(=O)/C(=C/c1ccc([N+](=O)[O-])o1)O2`
3.05
